Data provenance is PubChem BioAssay (NCI).

tested on: RXF 393 renal; test: NCI tumour cell line growth inhibition, 48 h
Exercise: for every item that follows, state its recorded TGI.

Query block: Tell me TGI reported for C[N+](C)(C)c1cc[c]([Sn]([c]2ccc([N+](C)(C)C)cc2)([c]2ccc([N+](C)(C)C)cc2)[c]2ccc([N+](C)(C)C)cc2)cc1
Result block: > 100 µM

Query block: Tell me TGI reported for CN1C(=O)C(C(=O)Nc2ccccn2)C2C[C@@]1(C)Oc1ccccc12 (stereo not given in full)
Result block: > 100 µM

Query block: Tell me TGI reported for CCc1c(CNC2=NCCN2)c(CC)c(CNC2=NCCN2)c(CC)c1CNC1=NCCN1
Result block: > 100 µM

Query block: Tell me TGI reported for COS(C)(=O)=O
Result block: > 2 µM

Query block: Tell me TGI reported for CC1=NN2C(c3ccc([N+](=O)[O-])cc3)=CSC2=NC(C)(C)C1
Result block: > 100 µM

====

test system: T-47D breast; assay: NCI tumour cell line growth inhibition, 48 h
Exercise: for every item that follows, state its recorded TGI.

Query block: Tell me TGI reported for Nc1ncc(C=O)c(NCC2(CO)CCC2)n1
Result block: 88.9 µM

Query block: Tell me TGI reported for Oc1ccc2ccccc2c1C=NCc1c(O)ccc2ccccc12
Result block: > 100 µM

Query block: Tell me TGI reported for CCCCCCCCCCCCN=C(N)c1ccc(N2CCN(c3ccc(C(N)=NCCCCCCCCCCCC)cc3)CC2)cc1
Result block: 21.3 µM

Query block: Tell me TGI reported for CC(=O)Nc1cc2cc(NS(=O)(=O)c3ccc(Cl)c(Cl)c3)ccc2oc1=O
Result block: 43.5 µM

====

test system: NCI-H460 lung; test: NCI tumour cell line growth inhibition, 48 h
quantity-name: GI50

Query block: Check NCI-H460 lung data and give GI50 for C#C[C@@]1(O)[C@@H](CO)O[C@@H](n2cc(C(F)(F)F)c3c(N)ncnc32)[C@@H]1O .
Result block: 0.536 µM

Query block: Check NCI-H460 lung data and give GI50 for CCC(C)C1=C(O)[N+]2([O-])Oc3ccc(C4=C(O)C(=O)C(c5ccc(O)cc5)=C(O)C4=O)cc3OC2(C(C)CC)C(=O)N1O (stereo not given) .
Result block: 4.26 µM

Query block: Check NCI-H460 lung data and give GI50 for Nc1ncc(-c2ccc3ncnc(N4CCc5ccc(Cl)cc54)c3c2)cc1C(F)(F)F .
Result block: 1.02 µM

Query block: Check NCI-H460 lung data and give GI50 for Clc1ccc2c(c1)N(C1CCCN(Cc3ccccc3)C1)c1ccccc1S2 (stereo not given) .
Result block: 3.17 µM

Query block: Check NCI-H460 lung data and give GI50 for C=C1C(=O)O[C@H]2[C@H]1CC/C(COC(=O)/C=C\C(=O)NCc1ccc(Cn3c(=O)sn(CCI)c3=O)cc1)=C\CC[C@@]1(C)O[C@@H]21 .
Result block: 15.5 µM

====

Exercise: for every item that follows, state its recorded TGI.
test system: HT29 colon; assay: NCI tumour cell line growth inhibition, 48 h

Query block: Tell me TGI reported for CCOC(=O)C1C(c2ccc(OC)cc2)c2c([nH][nH]c2=O)CC1(C)O (stereo unspecified)
Result block: > 100 µM

Query block: Tell me TGI reported for O=c1oc2ccccc2c(O)c1C(c1ccc(-c2ccccc2)cc1)c1c(O)c2ccccc2oc1=O
Result block: 38.3 µM

Query block: Tell me TGI reported for Nc1nc2c(-c3ccc([N+](=O)[O-])cc3)nnn2c2ccccc12
Result block: > 100 µM

Query block: Tell me TGI reported for Cc1ccc(-c2nc(-c3nccc4ccccc34)oc2-c2ccccc2)cc1
Result block: > 100 µM

Query block: Tell me TGI reported for CN(C)c1ccc(/C=N/c2nc3cc4sc(/N=C/c5ccc(N(C)C)cc5)nc4cc3s2)cc1
Result block: > 100 µM

Query block: Tell me TGI reported for Nc1nc(N)c2ncn(CCOC(c3ccccc3)P(=O)(O)O)c2n1 (stereo unspecified)
Result block: > 100 µM

Query block: Tell me TGI reported for CN(/N=C/c1ccccn1)C1=NCCCN1
Result block: > 100 µM

Query block: Tell me TGI reported for O=C(NCCOCCOCCOCCNC(=O)c1cc2c(o1)C(=O)c1ccccc1C2=O)NC12CC3CC(CC(C3)C1)C2
Result block: 6.79 µM

Query block: Tell me TGI reported for Cc1c2ccncc2c(C)c2c1[nH]c1ccc(Oc3ccccc3)cc12
Result block: 3.84 µM

Query block: Tell me TGI reported for c1ccc(Cn2c(-c3ccc(-c4ccccc4)cc3)cc3ccccc32)cc1
Result block: > 100 µM

Query block: Tell me TGI reported for COc1cc2c3c(n(CCCNCCCNCCN)c(=O)c2cc1OC)-c1cc2c(cc1C3=O)OCO2
Result block: 95.2 µM

Query block: Tell me TGI reported for Nc1ncc(C=O)c(NCC2(CO)CCC2)n1
Result block: > 100 µM

Query block: Tell me TGI reported for O=C(Nc1cc(F)c(F)cc1C(=O)O)c1ccc(-n2ccnc2)nn1
Result block: > 100 µM

Query block: Tell me TGI reported for Nc1nc(Cl)c2ncn(Cc3cccc(CCl)c3)c2n1
Result block: 19.2 µM

Query block: Tell me TGI reported for COc1cc2c(oc(=O)c3cc4cc([Si](C)(C)C)oc4c(OC)c32)c2cccc(O)c12
Result block: > 100 µM

Query block: Tell me TGI reported for Nc1cccc(OCC2CCCN3CCCCC23)c1 (stereo unspecified)
Result block: 25.1 µM
